# measurement target: Alkaline phosphatase, tissue-nonspecific isozyme (Homo sapiens) (UniProt P05186)
# Sequence (P05186 whole entry, looked up): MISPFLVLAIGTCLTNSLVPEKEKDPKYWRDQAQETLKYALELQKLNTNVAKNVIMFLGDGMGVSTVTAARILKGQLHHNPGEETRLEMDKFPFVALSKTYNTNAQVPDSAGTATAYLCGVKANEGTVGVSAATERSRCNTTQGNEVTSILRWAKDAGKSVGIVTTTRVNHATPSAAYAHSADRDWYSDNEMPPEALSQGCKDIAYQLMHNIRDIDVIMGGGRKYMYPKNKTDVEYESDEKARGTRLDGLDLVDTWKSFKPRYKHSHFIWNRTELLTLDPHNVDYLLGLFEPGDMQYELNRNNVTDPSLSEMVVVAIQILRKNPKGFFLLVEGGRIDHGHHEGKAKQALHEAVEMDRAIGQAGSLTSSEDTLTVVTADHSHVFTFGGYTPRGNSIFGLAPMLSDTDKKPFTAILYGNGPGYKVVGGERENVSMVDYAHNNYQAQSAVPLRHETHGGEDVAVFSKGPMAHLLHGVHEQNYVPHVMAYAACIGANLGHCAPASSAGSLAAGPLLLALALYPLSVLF
# assay summary: inhibition of tissue-nonspecific alkaline phosphatase – biochemical, selectivity assay for human IAP inhibitor project, SAR follow-up (AID 493141)
# cond: isolated enzyme, CDP-Star luminescence, 30 min
Calls of active or inactive are those of the source. The rule behind the calls is not given here.
A correct response names exactly one class from True = active, False = inactive

For orientation, consider the following solved cases.
{"columns": ["compound", "group"],
 "data": [
  ["CCOc1cc(C=N/N=C2/NC(=O)C(CC(=O)O)S2)ccc1OCc1ccccc1Cl (configuration not stated)", "False"],
  ["Oc1ccc(-c2csc(Nc3ccccc3)n2)c(O)c1", "False"],
  ["COc1ccc(/C=N/N=C2\\NC(=O)C(CC(=O)O)S2)c(OC)c1 (configuration not stated)", "False"],
  ["COc1cc(C=NNC(=S)Nc2cccc(C(=O)O)c2)ccc1O", "False"],
  ["COc1cc(C(=O)NNC(=S)Nc2ccc(S(N)(=O)=O)cc2)cc(OC)c1OC", "False"]
]}

Inquiry: Test call, this compound: COC(=O)/C=C1/S/C(=N/NC(=O)c2ccccc2)NC1=O
Reply text: False

Inquiry: Test call, this compound: O=S(=O)(c1ccc(NC(=S)N/N=C/c2ccc(O)c(O)c2O)cc1)N1CCOCC1
Reply text: False

Inquiry: Test call, this compound: CCOc1cc(C=NNC(=S)NC2CCCCC2)ccc1O
Reply text: False

Inquiry: Test call, this compound: Cc1ccc(C)c(Nc2nc(-c3ccc(O)cc3O)cs2)c1
Reply text: False

Inquiry: Test call, this compound: S=C(NCCC(c1ccccc1)c1ccccc1)Nc1ccc(Cl)cc1Cl
Reply text: False

Inquiry: Test call, this compound: FC(F)(F)c1cccc(NC(=S)NCCC(c2ccccc2)c2ccccc2)c1
Reply text: False

Inquiry: Test call, this compound: O=S(=O)(Nc1ncccn1)c1ccc(NC(=S)NCCC(c2ccccc2)c2ccccc2)cc1
Reply text: False

Inquiry: Test call, this compound: NS(=O)(=O)c1ccc(Nc2nc(-c3ccc(O)cc3O)cs2)cc1
Reply text: True

Inquiry: Test call, this compound: Cc1ccc(Nc2nc(-c3ccc(O)cc3O)cs2)cc1F
Reply text: False

Inquiry: Test call, this compound: O=[N+]([O-])c1ccccc1NC(=S)N/N=C/c1ccc(O)c(O)c1O
Reply text: True

Inquiry: Test call, this compound: COC(=O)/C=C1/S/C(=N/NC(=O)c2ccccc2OC)NC1=O
Reply text: False

###

# measurement target: Alkaline phosphatase, tissue-nonspecific isozyme (Homo sapiens)
# assay summary: inhibition of tissue-nonspecific alkaline phosphatase – biochemical, selectivity assay for human IAP inhibitor project, SAR follow-up (AID 493141)
# cond: isolated enzyme, CDP-Star luminescence, 30 min
The source made the active and inactive calls. How the calls were made is not given here.
A correct response names exactly one class from active, inactive

For orientation, consider the following solved cases.
{"columns": ["molecule", "group"],
 "data": [
  ["COC(=O)C/C=N/N=C1\\NC(=O)/C(=C/C(=O)O)S1", "inactive"],
  ["O=C(O)CC1S/C(=N/N=C/c2ccco2)NC1=O (stereo unspecified)", "inactive"],
  ["COC(=O)/C=C1\\S/C(=N/N=C/c2ccc(Cl)cc2)NC1=O", "inactive"]
]}

Inquiry: Test call, this molecule: Cc1ccc(Cl)cc1Nc1nc(-c2ccc(O)c(O)c2)cs1
Reply text: active

Inquiry: Test call, this molecule: COc1cc(/C=N/N=C2/SCC(=O)N2c2ccc(O)cc2)ccc1O
Reply text: inactive

Inquiry: Test call, this molecule: COc1cc(C=NNC(=S)Nc2cccc(S(=O)(=O)N(C)C)c2)ccc1O
Reply text: inactive

Inquiry: Test call, this molecule: COc1cc([N+](=O)[O-])ccc1NC(=S)NCCC(c1ccccc1)c1ccccc1
Reply text: inactive

Inquiry: Test call, this molecule: Cc1ccc(Nc2nc(-c3ccc(O)cc3O)cs2)cc1
Reply text: inactive

###

# measurement target: UniProt P05186
# assay summary: inhibition of tissue-nonspecific alkaline phosphatase – biochemical, selectivity assay for human IAP inhibitor project, SAR follow-up (AID 493141)
# cond: isolated enzyme, CDP-Star luminescence, 30 min
The source made the active and inactive calls. The rule behind the calls is not given here.
A correct response names exactly one class from yes = active, no = inactive

For orientation, consider the following solved cases.
{"columns": ["compound", "group"],
 "data": [
  ["COc1cc(/C=N/N=C2\\NC(=O)C(CC(=O)O)S2)cc(OC)c1OC (stereo not drawn)", "no"],
  ["NS(=O)(=O)c1ccc(Nc2nc(-c3ccc(O)c(O)c3)cs2)cc1", "yes"],
  ["Cc1cccc(NC(=S)NNC(=O)c2ccc3c(c2)OCO3)c1", "no"],
  ["Oc1ccc(Nc2nc(-c3ccc(O)c(O)c3)cs2)cc1", "yes"],
  ["COC(=O)/C=C1/S/C(=N/NC(=O)c2ccc(OC)cc2)NC1=O", "no"]
]}

Inquiry: Test call, this compound: Cc1cccc(Nc2nc(-c3ccc(O)c(O)c3)cs2)c1
Reply text: yes

Inquiry: Test call, this compound: COc1ccc(C=Nn2c(=S)n(C)c3ccccc32)cc1OC
Reply text: no

Inquiry: Test call, this compound: COc1cc(C=NNC(=S)Nc2cccc(S(=O)(=O)N(C)C)c2)cc(OC)c1O
Reply text: no
